Data origin, for the record: BindingDB's records for doi:10.1016/j.bmcl.2012.04.051

target: Voltage-dependent N-type calcium channel subunit alpha-1B (Homo sapiens, UniProt Q00975); test: Inhibition of N-type voltage-dependent calcium channel CaV2.2 in human IMR32 cells assessed as inhibition of KCl-induced increase in intracellular calcium concentration preincubated for 4 to 5 mins before KCl challenge
Sequence (Q00975 whole entry): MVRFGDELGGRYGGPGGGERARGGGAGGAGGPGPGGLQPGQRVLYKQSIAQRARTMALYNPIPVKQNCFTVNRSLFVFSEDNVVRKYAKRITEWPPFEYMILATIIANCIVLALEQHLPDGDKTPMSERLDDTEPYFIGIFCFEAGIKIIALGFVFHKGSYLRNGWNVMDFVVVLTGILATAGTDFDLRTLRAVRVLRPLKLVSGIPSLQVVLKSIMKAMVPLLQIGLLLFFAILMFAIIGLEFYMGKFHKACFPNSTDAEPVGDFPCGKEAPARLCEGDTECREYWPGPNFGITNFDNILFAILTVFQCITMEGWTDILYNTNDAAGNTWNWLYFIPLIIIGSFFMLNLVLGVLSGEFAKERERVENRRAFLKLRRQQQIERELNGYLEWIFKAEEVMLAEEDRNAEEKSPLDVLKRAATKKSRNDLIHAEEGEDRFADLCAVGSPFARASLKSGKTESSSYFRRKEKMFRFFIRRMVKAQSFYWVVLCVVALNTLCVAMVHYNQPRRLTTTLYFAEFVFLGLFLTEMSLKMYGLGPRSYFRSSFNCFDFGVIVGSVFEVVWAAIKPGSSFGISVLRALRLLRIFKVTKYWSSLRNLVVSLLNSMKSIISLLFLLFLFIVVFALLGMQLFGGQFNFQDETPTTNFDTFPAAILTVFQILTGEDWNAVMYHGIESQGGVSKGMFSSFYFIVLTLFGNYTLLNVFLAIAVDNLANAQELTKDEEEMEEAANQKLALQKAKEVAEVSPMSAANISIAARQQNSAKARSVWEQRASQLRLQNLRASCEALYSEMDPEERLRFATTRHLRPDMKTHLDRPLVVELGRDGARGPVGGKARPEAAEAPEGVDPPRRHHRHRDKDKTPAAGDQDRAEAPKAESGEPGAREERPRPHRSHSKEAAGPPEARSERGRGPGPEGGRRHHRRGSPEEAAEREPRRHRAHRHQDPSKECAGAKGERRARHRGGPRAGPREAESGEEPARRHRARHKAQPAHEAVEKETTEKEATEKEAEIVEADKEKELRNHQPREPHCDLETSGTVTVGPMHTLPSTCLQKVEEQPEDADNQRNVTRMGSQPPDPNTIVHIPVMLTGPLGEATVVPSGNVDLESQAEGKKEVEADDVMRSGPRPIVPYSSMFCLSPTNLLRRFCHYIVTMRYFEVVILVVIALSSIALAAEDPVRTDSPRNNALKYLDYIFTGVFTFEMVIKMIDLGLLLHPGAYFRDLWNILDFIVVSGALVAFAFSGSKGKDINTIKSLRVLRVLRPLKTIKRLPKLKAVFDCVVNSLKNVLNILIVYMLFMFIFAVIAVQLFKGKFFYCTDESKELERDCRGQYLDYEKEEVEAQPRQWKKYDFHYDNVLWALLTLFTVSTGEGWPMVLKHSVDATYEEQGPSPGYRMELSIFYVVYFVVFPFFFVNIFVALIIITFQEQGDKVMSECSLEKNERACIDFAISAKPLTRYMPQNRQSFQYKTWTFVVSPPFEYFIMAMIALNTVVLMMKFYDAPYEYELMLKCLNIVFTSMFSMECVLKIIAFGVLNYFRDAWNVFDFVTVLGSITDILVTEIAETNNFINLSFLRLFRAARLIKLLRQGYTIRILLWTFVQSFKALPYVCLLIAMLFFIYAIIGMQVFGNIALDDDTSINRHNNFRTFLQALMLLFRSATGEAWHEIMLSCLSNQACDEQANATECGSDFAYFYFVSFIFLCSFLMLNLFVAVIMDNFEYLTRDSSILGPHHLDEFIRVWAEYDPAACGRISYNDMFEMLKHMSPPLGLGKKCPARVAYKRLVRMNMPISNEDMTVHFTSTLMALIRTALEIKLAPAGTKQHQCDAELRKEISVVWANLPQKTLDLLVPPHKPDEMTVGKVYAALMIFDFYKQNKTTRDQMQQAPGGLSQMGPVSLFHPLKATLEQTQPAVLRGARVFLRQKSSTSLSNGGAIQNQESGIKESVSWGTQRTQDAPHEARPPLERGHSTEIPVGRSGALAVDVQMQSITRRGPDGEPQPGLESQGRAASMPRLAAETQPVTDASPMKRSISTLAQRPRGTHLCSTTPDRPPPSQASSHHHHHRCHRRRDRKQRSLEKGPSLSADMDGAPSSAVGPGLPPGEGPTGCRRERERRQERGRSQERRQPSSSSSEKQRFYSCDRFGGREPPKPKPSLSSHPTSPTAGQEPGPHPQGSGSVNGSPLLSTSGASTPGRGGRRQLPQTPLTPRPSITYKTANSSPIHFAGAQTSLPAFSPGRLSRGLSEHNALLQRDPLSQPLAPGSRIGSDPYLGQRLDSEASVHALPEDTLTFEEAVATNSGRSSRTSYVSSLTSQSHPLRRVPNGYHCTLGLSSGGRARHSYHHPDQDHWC
READOUT KIND: IC50 (nM)

- COMPOUND: "COC(OC)C1=C(C(=O)OC/C=C/c2ccccc2)C(c2cccc(Cl)c2)C(C(=O)O)C=N1 (configuration not stated)"
  TEST SYSTEM: "Voltage-dependent N-type calcium channel subunit alpha-1B (Homo sapiens, UniProt Q00975)"
  IC50 / nM: 1100
- COMPOUND: "O=C(OC/C=C/c1ccccc1)C1=CN=CC(C(=O)O)C1c1cccc(C(F)(F)F)c1 (configuration not stated)"
  TEST SYSTEM: "Voltage-dependent N-type calcium channel subunit alpha-1B (Homo sapiens, UniProt Q00975)"
  IC50 / nM: 1200

[A] COC(OC)C1=C(C(=O)OC/C=C/c2ccccc2)C(c2ccc(Cl)cc2)C(C(=O)O)C=N1 (configuration not stated)
[B] COc1c(Cl)cc(C2C(C(=O)OC/C=C/c3ccccc3)=CN=CC2C(=O)O)cc1Cl (configuration not stated)
IN: Just tell me: smaller IC50 value, A or B ? I would appreciate it if you answered with the label of your choice.
OUT: B
(B: 580 nM, A: 1100 nM)
